In this section, each of the molecules is paired with its reported MIC.
# System: Staphylococcus aureus
# Procedure Details: […] antibacterial activity (synergistic study) against Staphylococcus aureus ATCC 29213
# Format: functional
Outcome Measure: MIC (µg/mL)

INSERT INTO measurements (molecule, result_operator, recorded_value) VALUES
  ('CCN1CCN(C(=O)N[C@@H](C(=O)NC2C(=O)N3C2SC(C)(C)C3C(=O)O)c2ccccc2)C(=O)C1=O.C[C@]1(Cn2ccnn2)[C@H](C(=O)O)N2C(=O)C[C@H]2S1(=O)=O (single isomer, unassigned; form 1)', '=', 1),
  ('CC(=O)OCC1=C(C(=O)[O-])N2C(=O)/C(=C/C(=O)OC(C)(C)C)[C@H]2S(=O)(=O)C1.CCN1CCN(C(=O)NC(C(=O)N[C@H]2C(=O)N3[C@H]2SC(C)(C)[C@H]3C(=O)O)c2ccccc2)C(=O)C1=O.[Na+] (stereo not given in full)', '=', 4),
  ('COC(=O)/C=C1/C(=O)N2[C@@H](C(=O)[O-])C(C)(C)S(=O)(=O)[C@H]12.[Na+]', '>', 128),
  ('CC(C)(C)OC(=O)/C=C1/C(=O)N2[C@@H](C(=O)[O-])C(C)(C)S(=O)(=O)[C@H]12.CCN1CCN(C(=O)NC(C(=O)N[C@H]2C(=O)N3[C@H]2SC(C)(C)[C@H]3C(=O)O)c2ccccc2)C(=O)C1=O.[Na+] (stereo not given in full)', '=', 2),
  ('CC(=O)OCC1=C(C(=O)[O-])N2C(=O)/C(=C/C(=O)[O-])[C@H]2S(=O)(=O)C1.[Na+].[Na+]', '=', 16),
  ('CC1(C)[C@H](C(=O)[O-])N2C(=O)/C(=C/C(=O)[O-])[C@H]2S1(=O)=O.CCN1CCN(C(=O)NC(C(=O)N[C@H]2C(=O)N3[C@H]2SC(C)(C)[C@H]3C(=O)O)c2ccccc2)C(=O)C1=O.[Na+].[Na+] (stereo not given in full)', '=', 4),
  ('CCN1CCN(C(=O)NC(C(=O)N[C@H]2C(=O)N3[C@H]2SC(C)(C)[C@H]3C(=O)O)c2ccccc2)C(=O)C1=O.COC(=O)/C=C1/C(=O)N2C(C(=O)[O-])=C(COC(C)=O)CS(=O)(=O)[C@H]12.[Na+] (stereo not given in full)', '=', 4),
  ('CC(=O)OCC1=C(C(=O)[O-])N2C(=O)/C(=C/C(=O)[O-])[C@H]2S(=O)(=O)C1.CCN1CCN(C(=O)NC(C(=O)N[C@H]2C(=O)N3[C@H]2SC(C)(C)[C@H]3C(=O)O)c2ccccc2)C(=O)C1=O.[Na+].[Na+] (stereo not given in full)', '=', 4),
  ('CC(=O)OCC1=C(C(=O)[O-])N2C(=O)/C(=C/C(=O)OC(C)(C)C)[C@H]2S(=O)(=O)C1.[Na+]', '=', 4),
  ('COC(=O)/C=C1/C(=O)N2C(C(=O)[O-])=C(COC(C)=O)CS(=O)(=O)[C@H]12.[Na+]', '>', 128);
